- Test system: BxPC3
- protocol: MTT proliferation/viability assay
- Type: cell-based, human
- particulars: BxPC3, pancreas, listed as FGTI-2734
metric: pIC50
Please express pIC50 as -log10 of the molar concentration.

Q: Would you mind telling me what pIC50 value was observed for Cn1cncc1CN(CCN(CC1CCCCC1)S(=O)(=O)c1ccccn1)c1ccc(C#N)cc1F [21b] ?
Result: 4.75

----------
Each entry below carries its recorded selectivity (ratio of GGTase-I to FTase IC50s).
- tested system: hFTase (Homo sapiens, UniProt P49354+P49356)
- protocol: In vitro hFTase inhibition: incorporation of [3H]FPP into recombinant H-Ras-CVLS
- Assay type: biochemical
- particulars: GGTase-I IC50 / hFTase IC50
Just the number, please, no unit attached.

Here is how some molecules turned out for selectivity (ratio of GGTase-I to FTase IC50s).
1) Cn1cnc(S(=O)(=O)N(CCN(Cc2cnc[nH]2)c2ccccc2)Cc2ccccc2)c1: 1.6
2) Cn1cnc(S(=O)(=O)N(CCN(Cc2cncn2C)c2ccc(-c3ccccc3)cc2)Cc2ccccc2)c1: 0.7
3) Cn1cnc(S(=O)(=O)N(CCN(Cc2cncn2C)c2ccc(C#N)cc2)Cc2ccoc2)c1: 19

Q: Would you mind telling me what selectivity (ratio of GGTase-I to FTase IC50s) value was observed for `Cc1ccccc1CN(CCN(Cc1cncn1C)c1ccc(C#N)cc1)S(=O)(=O)c1cn(C)cn1` ?
Result: 15

----------
- tested system: hFTase (Homo sapiens, UniProt P49354+P49356)
- protocol: In vitro hFTase inhibition: incorporation of [3H]FPP into recombinant H-Ras-CVLS
- Format: biochemical
- particulars: GGTase-I IC50 / hFTase IC50
Tick Condition met if selectivity (ratio of GGTase-I to FTase IC50s) is 3 or greater. Tick Condition not met if selectivity (ratio of GGTase-I to FTase IC50s) is less than 3.

1) Cn1cnc(S(=O)(=O)N(CCN(Cc2cncn2C)c2ccc(C#N)cc2)Cc2ccc(-c3ccccc3)cc2)c1: Condition met
2) Cn1cnc(S(=O)(=O)N(CCN(Cc2cncn2C)c2ccc(C#N)cc2)CCn2cccc2)c1: Condition met
3) C=CCN(CCN(Cc1cncn1C)c1ccc(C#N)cc1)S(=O)(=O)c1cn(C)cn1: Condition met
4) Cn1cnc(S(=O)(=O)N(CCN(Cc2cncn2C)c2ccc(C#N)cc2)Cc2cccc(-c3ccccc3)c2)c1: Condition not met
5) Cn1cnc(S(=O)(=O)N(CCN(Cc2cncn2C)c2c(F)c(F)c(C#N)c(F)c2F)CC2CCN(c3ncccn3)CC2)c1 [19h]: Condition met
6) Cn1cncc1CN(CCN(CC1CCCCC1)S(=O)(=O)c1ccccn1)c1ccc(C#N)cn1 [21c]: Condition not met
7) Cn1cnc(S(=O)(=O)N(CCN(Cc2cncn2C)c2ccc(C#N)cc2)CC2CC2)c1: Condition met

Q: Dear colleague, could you confirm whether `Cn1cnc(S(=O)(=O)N(CCN(Cc2cncn2C)c2ccc(C#N)cc2)Cc2cccs2)c1` has selectivity (ratio of GGTase-I to FTase IC50s) at or above 3?
Result: Condition not met

----------
- tested system: hFTase (Homo sapiens, UniProt P49354+P49356)
- protocol: In vitro hFTase inhibition: incorporation of [3H]FPP into recombinant H-Ras-CVLS
- Assay type: biochemical
- particulars: GGTase-I IC50 / hFTase IC50
Each entry below carries its recorded selectivity (ratio of GGTase-I to FTase IC50s).
Just the number, please, no unit attached.

Here is how some molecules turned out for selectivity (ratio of GGTase-I to FTase IC50s).
1. Cn1cnc(S(=O)(=O)N(CCN(Cc2cnc[nH]2)c2ccc(Br)cc2)Cc2ccccc2)c1: 6.0
2. Cc1noc(C)c1CN(CCN(Cc1cncn1C)c1ccc(C#N)cc1)S(=O)(=O)c1cn(C)cn1: 2.7
3. Cn1cncc1CN(CCN(Cc1ccccc1)S(=O)(=O)c1ccccc1)c1ccc(C#N)cc1: 7.6

Below: the item to evaluate.
Q: Would you mind telling me what selectivity (ratio of GGTase-I to FTase IC50s) value was observed for `CN(C)c1cccc2c(S(=O)(=O)N(CCN(Cc3cncn3C)c3ccc(C#N)cc3)Cc3ccccc3)cccc12` ?
Result: 63
